Test system: NCI-H460 lung
assay notes: NCI tumour cell line growth inhibition, 48 h; in the data active means GI50 below about 0.43 µM; inactive means the rest
# valid calls are class 1 = active, class 0 = inactive; nothing else

For orientation, consider the following solved cases.
cpd smiles: COc1ccc(OC)c(-c2cc(-c3ccc(Cl)cc3)nn2-c2ccccc2)c1
label class: class 0
//
cpd smiles: O=C(Nc1ccc(Cl)cc1)c1cc(NCc2cc(O)ccc2O)ccc1O
label class: class 0
//
cpd smiles: O=C(N/N=C\c1ccc(N(CCCl)CCCl)cc1)c1cccnc1
label class: class 0

Consider now this further molecule.
Incoming: Entry `COc1cc(/C=C/C(=O)c2ccccc2O)ccc1OCCCOc1cc2c(cc1OC)C(=O)N1CCC[C@H]1C=N2` : call = ?
Outgoing: class 1

Data credit: PubChem BioAssay (NCI)
